# system_tested: HIV Env, isolate 6240_08_TA5_4622 (HIV)
# method: cell-based or functional assay
property_label: IC80 (µg/ml) with constrains (µg/mL)

• ePGDM9 (antibody, V domains shown) VH: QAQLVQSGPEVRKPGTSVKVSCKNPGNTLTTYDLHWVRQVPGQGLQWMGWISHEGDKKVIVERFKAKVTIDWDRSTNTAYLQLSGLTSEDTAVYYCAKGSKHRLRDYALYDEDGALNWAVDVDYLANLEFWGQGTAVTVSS VL: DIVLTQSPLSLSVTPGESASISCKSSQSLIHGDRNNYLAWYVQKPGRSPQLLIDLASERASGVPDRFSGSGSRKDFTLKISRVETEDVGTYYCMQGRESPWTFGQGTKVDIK = 6.6
• ePGDM13 (antibody, V domains shown) VH: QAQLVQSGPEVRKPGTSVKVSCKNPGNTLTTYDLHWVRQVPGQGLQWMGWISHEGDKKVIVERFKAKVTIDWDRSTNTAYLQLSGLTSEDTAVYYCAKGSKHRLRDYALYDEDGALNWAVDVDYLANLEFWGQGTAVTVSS VL: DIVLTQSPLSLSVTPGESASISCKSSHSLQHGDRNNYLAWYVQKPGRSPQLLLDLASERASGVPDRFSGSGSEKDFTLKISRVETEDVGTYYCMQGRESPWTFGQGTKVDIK = 12.6
• ePGDM5 (antibody, V domains shown) VH: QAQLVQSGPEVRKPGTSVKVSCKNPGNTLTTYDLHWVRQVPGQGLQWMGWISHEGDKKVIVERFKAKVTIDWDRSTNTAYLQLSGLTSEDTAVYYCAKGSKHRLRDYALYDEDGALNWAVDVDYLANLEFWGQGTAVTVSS VL: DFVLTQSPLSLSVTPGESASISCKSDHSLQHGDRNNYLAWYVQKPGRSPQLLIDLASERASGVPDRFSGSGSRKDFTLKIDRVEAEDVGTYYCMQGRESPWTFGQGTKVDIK = 8.09
